Test: DRUGMATRIX: Imidazoline I2, Central radioligand binding (ligand: [3H] Idazoxan)
Format: cell membranes, Rattus norvegicus, Wistar, Cerebral cortex, Membrane
Settings: Not Active = under 50% inhibition at 10 µM
quantity-measured: Ki

- compound: "CO[C@H]1[C@@H](O)[C@H](N)[C@@H](O[C@H]2O[C@H]([C@H](C)N)CC[C@H]2N)[C@H](O)[C@@H]1N(C)C(=O)CN"
  quantity-measured: "Ki"
  experimental-result: "Not Active"
- compound: "COc1ccc(/C=C/C(=O)Nc2ccccc2C(=O)O)cc1OC"
  quantity-measured: "Ki"
  experimental-result: "Not Active"
- compound: "Nn1nnc2ccccc21"
  quantity-measured: "Ki"
  experimental-result: "Not Active"
- compound: "Cc1cnc(C(=O)NCCc2ccc(S(=O)(=O)NC(=O)NC3CCCCC3)cc2)cn1 [GLIPIZIDE]"
  quantity-measured: "Ki"
  experimental-result: "Not Active"
- compound: "C=C(C)[C@H]1Cc2c(ccc3c2O[C@@H]2COc4cc(OC)c(OC)cc4[C@@H]2C3=O)O1"
  quantity-measured: "Ki"
  experimental-result: "Not Active"

Ask: # return recorded Ki for input CC(=O)O[C@]1(C(C)=O)CC[C@H]2[C@@H]3C=C(Cl)C4=CC(=O)[C@@H]5C[C@@H]5[C@]4(C)[C@H]3CC[C@@]21C [CYPROTERONE ACETATE]
Reply: Not Active

Ask: Provide Ki value for the following compound: C[C@@H]1CC[C@H]2[C@@H](C)C(=O)O[C@@H]3O[C@@]4(C)CC[C@@H]1[C@]32OO4
Reply: Not Active

Ask: Indicate its recorded Ki; the compound in question is O=P1(N(CCCl)CCCl)NCCCO1 (stereo not given) [CYCLOPHOSPHAMIDE ANHYDROUS]
Reply: Not Active

Ask: Return reported Ki. Input compound: Nc1nc(N)nc(NC2CC2)n1
Reply: Not Active

Ask: Quick one: give measured Ki for C[C@]12CC[C@H]3[C@@H](CCC4=CC(=O)CC[C@@]43C)[C@@H]1CC[C@@H]2O
Reply: Not Active

Ask: Query Ki for Nc1nc(Cl)nc2c1ncn2[C@H]1C[C@H](O)[C@@H](CO)O1
Reply: Not Active

Ask: For the compound Nc1ccc(S(=O)(=O)Nc2ncccn2)cc1 , give its measured Ki value.
Reply: Not Active

Ask: Provide measured Ki value, entry: O=C(c1ccccc1Cl)N1CCC(Cc2ccccc2)CC1
Reply: Not Active

Ask: Look up and state reported Ki for CCS(=O)(=O)CCn1c([N+](=O)[O-])cnc1C
Reply: Not Active

Ask: Note down Ki recorded for CO[C@H]1C[C@@H]2CC[C@@H](C)[C@@](O)(O2)C(=O)C(=O)N2CCCC[C@H]2C(=O)O[C@H]([C@H](C)C[C@@H]2CC[C@@H](O)[C@H](OC)C2)CC(=O)[C@H](C)/C=C(\C)[C@@H](O)[C@@H](OC)C(=O)[C@H](C)C[C@H](C)/C=C/C=C/C=C/1C
Reply: Not Active

Ask: Assign Ki to the following record: C#C[C@]1(O)CC[C@H]2[C@@H]3CCC4=Cc5oncc5C[C@]4(C)[C@H]3CC[C@@]21C
Reply: Not Active

Ask: Quickly give me recorded Ki for CCC(=O)O[C@H]1[C@H](O[C@@H]2[C@@H](C)[C@H](O[C@H]3C[C@@](C)(OC)[C@@H](O)[C@H](C)O3)[C@@H](C)C(=O)O[C@H](CC)[C@@](C)(O)[C@H](O)[C@@H](C)C(=O)[C@H](C)C[C@@]2(C)O)O[C@H](C)C[C@@H]1N(C)C [ERYTHROMYCIN PROPIONATE]
Reply: Not Active

Ask: Given the compound [N-]=[N+]=CC(=O)OC[C@H](N)C(=O)O , write its reported Ki.
Reply: Not Active

Ask: // fetch Ki given entry C[C@]12CCC(=O)C=C1CC[C@@H]1[C@@H]2[C@@H](O)C[C@@]2(C)[C@H]1CC[C@]2(O)C(=O)CO [HYDROCORTISONE]
Reply: Not Active

Ask: Report measured Ki; entry is COc1ncnc(NS(=O)(=O)c2ccc(N)cc2)c1OC
Reply: Not Active

Ask: Give the reported Ki for this compound. CC[C@]1(O)CC[C@H]2[C@@H]3CCC4=CCCC[C@@H]4[C@H]3CC[C@@]21C
Reply: Not Active

Ask: Please report Ki for the following compound: CN(C(=O)CCCOc1ccc2[nH]c(=O)ccc2c1)C1CCCCC1 [CILOSTAMIDE]
Reply: Not Active

Ask: Return Ki (reported value) for this compound: C#C[C@]1(O)CC[C@H]2[C@@H]3CCc4cc(O)ccc4[C@H]3CC[C@@]21C
Reply: Not Active

Ask: Report Ki, nothing else, for this compound: CCCCCC[C@H]1C(=O)O[C@H](C)[C@H](NC(=O)c2cccc(NC=O)c2O)C(=O)O[C@@H](C)[C@@H]1OC(=O)CC(C)C [ANTIMYCIN A]
Reply: Not Active

Ask: Please give the documented Ki of CCc1oc2ccccc2c1C(=O)c1cc(Br)c(O)c(Br)c1
Reply: Not Active
